- System tested: T1, cMetECDHis (human, UniProt P08581 25-932, limits assumed, biotinylated in the cross-block ELISA of Example 17)
- T1 construct: Expressed in HEK-293F cells; also called soluble cMetECDHis; biotinylated cMetECDHis
- Test: cross-block ELISA; competitor 035
Decide using residual binding, % of no competitor: a value greater than or equal to 80% is Satisfied, a smaller one is Not satisfied.

- Binder: "anti-c-Met HuMab 045 (IgG1) (antibody, V domains shown, also called TH1016-045; PC1016-045) VH: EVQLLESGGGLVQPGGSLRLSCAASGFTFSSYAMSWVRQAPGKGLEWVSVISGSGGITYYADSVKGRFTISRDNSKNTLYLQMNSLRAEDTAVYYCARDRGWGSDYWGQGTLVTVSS VL: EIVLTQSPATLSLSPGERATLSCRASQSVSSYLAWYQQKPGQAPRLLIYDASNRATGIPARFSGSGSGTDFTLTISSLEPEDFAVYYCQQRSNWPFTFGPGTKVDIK"
  Class assignment: "Satisfied"
- Binder: "anti-c-Met HuMab 006 (IgG1) (antibody, V domains shown, also called TH1016-006; PC1016-006) VH: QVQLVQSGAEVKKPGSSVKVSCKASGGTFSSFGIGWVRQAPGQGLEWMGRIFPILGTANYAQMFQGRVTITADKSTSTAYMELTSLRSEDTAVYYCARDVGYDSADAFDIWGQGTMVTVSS VL: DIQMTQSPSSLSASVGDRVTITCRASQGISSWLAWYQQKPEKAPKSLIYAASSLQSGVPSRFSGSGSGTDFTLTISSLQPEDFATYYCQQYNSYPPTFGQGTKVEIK"
  Class assignment: "Not satisfied"
- Binder: "IgG1-024 (antibody, V domains shown, also called TH1016-024; PC1016-024) VH: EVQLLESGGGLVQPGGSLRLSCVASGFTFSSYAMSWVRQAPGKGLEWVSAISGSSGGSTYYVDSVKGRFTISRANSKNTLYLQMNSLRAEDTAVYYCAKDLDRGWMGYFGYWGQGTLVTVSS VL: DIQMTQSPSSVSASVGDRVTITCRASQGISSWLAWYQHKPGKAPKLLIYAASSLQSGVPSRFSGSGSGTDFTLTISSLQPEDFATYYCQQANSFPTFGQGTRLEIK"
  Class assignment: "Satisfied"

Q: Does the binder anti-c-Met HuMab 008 (IgG1) (antibody, V domains shown, also called TH1016-008; PC1016-008) VH: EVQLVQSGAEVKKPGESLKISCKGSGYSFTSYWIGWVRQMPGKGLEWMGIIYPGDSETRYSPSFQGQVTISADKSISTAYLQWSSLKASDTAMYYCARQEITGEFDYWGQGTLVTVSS VL: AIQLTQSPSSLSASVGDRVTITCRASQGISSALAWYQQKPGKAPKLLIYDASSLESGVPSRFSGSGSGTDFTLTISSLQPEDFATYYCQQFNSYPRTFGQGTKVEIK have recorded residual binding, % of no competitor that is 80% or more?
Ans: Not satisfied

Q: Textbook exercise: given the entry anti-c-Met HuMab 098 (IgG1) (antibody, V domains shown, also called TH1016-098; PC1016-098) VH: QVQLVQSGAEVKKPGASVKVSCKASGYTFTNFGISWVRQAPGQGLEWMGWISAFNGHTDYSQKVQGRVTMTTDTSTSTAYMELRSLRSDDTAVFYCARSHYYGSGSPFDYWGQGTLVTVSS VL: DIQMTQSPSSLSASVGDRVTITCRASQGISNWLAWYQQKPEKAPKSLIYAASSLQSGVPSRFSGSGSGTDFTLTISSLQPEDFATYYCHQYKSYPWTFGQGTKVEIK , state whether its residual binding, % of no competitor is greater than or equal to 80%.
Ans: Satisfied

Q: Evaluate anti-c-Met HuMab 035 (IgG1) (antibody, V domains shown, also called P1016-035; TH1016-035-D09) VH: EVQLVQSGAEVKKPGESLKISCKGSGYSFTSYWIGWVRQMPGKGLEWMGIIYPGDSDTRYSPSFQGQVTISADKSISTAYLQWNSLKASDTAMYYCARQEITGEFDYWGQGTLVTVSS VL: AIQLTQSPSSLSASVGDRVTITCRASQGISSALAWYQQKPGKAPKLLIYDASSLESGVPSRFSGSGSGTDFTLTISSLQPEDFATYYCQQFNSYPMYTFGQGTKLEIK : residual binding, % of no competitor at minimum 80%?
Ans: Not satisfied
